Assay: soluble fraction after stress (log2 fold change); higher = more stays soluble; pooled small domains, quantitative proteomics;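 note: 20 min heating vs room temperature control held 20 min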
Settings: stress: 75 degC
Tick Fulfilled if soluble fraction (log2) is -0.2 or greater. Tick Not fulfilled if soluble fraction (log2) is less than -0.2.

Input line: Tell me whether soluble fraction (log2) is at least -0.2 here: `HMLNIVTIFEEQFGRPLSPIELNIIKDWKESDYSDEMIVKALKEAVKSQVLNFRYVEGILNNWAKNG`
Output line: Not fulfilled

Input line: Determine whether measured soluble fraction (log2) meets or exceeds -0.2 for `HMSESLLTAAGFKTIAATTPEQKRHLEWLHPDQVTAVQLTGQHYYVYPDVAKSQLFVGTPKEYQAYLALRT`
Output line: Fulfilled

Input line: Please tell me: is the sequence `HMERYLLRDNIPNALHGERLDRVIAIMTGLSRSAVSALIKSNQVLRNGQIAQSISEKVVEGDELEVHLEP` at or over -0.2 in terms of soluble fraction (log2)?
Output line: Not fulfilled

----------
Assay: soluble fraction after stress (log2 fold change); higher = more stays soluble; pooled small domains, quantitative proteomics
Settings: stress: 75 degC
quantity_kind: soluble fraction (log2)
// print number alone

In the examples that follow, each entry is paired with its recorded soluble fraction (log2).
{"monomer_sequence": "HMDRDMGSMTDFENVRDAYLTGKVWNVGDLIEANGITGIIIRKGTNYVSYNDGDGKVHKAWLHDITL", "soluble fraction (log2)": -0.802}
{"monomer_sequence": "HMNIGVEQIEQMERGALITLWQELIDKPLPRHMSIVFLRQVLAFEVQSKQNGGLPRGFITLLNKQAD", "soluble fraction (log2)": -0.826}
{"monomer_sequence": "HMDEYFNPETVVHYLRELFDTYRENGGNPFEWFHSTFESVNLNPQNYRKDLITTIEKALIEWIEIFEKQ", "soluble fraction (log2)": -0.697}

Read the next record carefully.
Input line: # input sequence: `HMSYTPGQWVEASMPNATFFRIVPSGNATADKMLAVATPMKVISTSGTYVKVELDSGDVGFVPEIMV` ; wanted: its soluble fraction (log2)
Output line: -0.199

----------
Test: soluble fraction after stress (log2 fold change); higher = more stays soluble; pooled small domains, quantitative proteomics
Settings: stress: 75 degC
quantity_kind: soluble fraction (log2)
Write no unit; give the number alone.

{"monomer_sequence": "HMSISEADAKKIALEKVPGATDSNLRIKTDYDDGIMKYEVKIVYNEMKYEFDIDAATGTILEWESESVY", "quantity_kind": "soluble fraction (log2)", "recorded_number": -1.37}
{"monomer_sequence": "HMHLYDMYNLTEKEISIIRLIANGLNNKEISQELFLSEGTIKNNITNILAKLELRDRTQLAIFAFKNKIVI", "quantity_kind": "soluble fraction (log2)", "recorded_number": -3.6}
{"monomer_sequence": "HMDEWDPAILYVGLDYEDAAQIATRLATSGVPYRLSPDGTMITVPDDQVNNMRLTLAGEGFPH", "quantity_kind": "soluble fraction (log2)", "recorded_number": -0.0325}

Input line: # query: soluble fraction (log2) of entry `HMVMTTVPEVLGMDISKAASLLTGKNLDYDYDLVESDKPKDQVIEQDVVKGTEVPEGTVIHLKVSKGPA`
Output line: 0.258

----------
Test: soluble fraction after stress (log2 fold change); higher = more stays soluble; pooled small domains, quantitative proteomics
Details: stress: 75 degC
quantity_kind: soluble fraction (log2)
Enter the number alone.

Input line: Recorded soluble fraction (log2) of `HMNESPVLAVLTPTERKVASLVAEGLTNQAIAARMILAEGTVKNHVSTLLHKLQAPDRTALALTLYKAFQ` , please.
Output line: -1.3

Input line: Form field: reported soluble fraction (log2) of `HMEPVDYEALRKELMQKVMGLFTQSRDVGIQILSSFGAKKLSDVPDDKLVAFAASVDKALAG`
Output line: -0.193

Input line: Item `HMQFQVHEIKGKEYYIHVVEKGNTLYAISRMYSVPIETLKEENPRLNTTELTIGDRLLIPLDEVKRKNIE` has what recorded soluble fraction (log2)?
Output line: -0.833

Input line: Item `HMFMNFAEHLMALRKQRGWSQEELGSQIGVTRQTVSKWEMGQSTPELEKLVELSRLFGMSIDQLVGL` has what recorded soluble fraction (log2)?
Output line: -0.118
